These entries and their values trace back to patent US11364248B2.

Provide the reported pIC50 of each item.
Tested System: Mcl-1/Bim interaction (Homo sapiens (Human))
Sequence (Q07820 171-327): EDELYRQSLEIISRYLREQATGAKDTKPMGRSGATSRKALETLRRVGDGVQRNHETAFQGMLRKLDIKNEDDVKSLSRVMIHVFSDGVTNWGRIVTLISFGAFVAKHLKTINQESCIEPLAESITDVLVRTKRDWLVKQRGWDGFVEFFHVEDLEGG
Assay Comment: Cell Free Mcl-1: Bim Affinity Assay (Mcl-1 HTRF)
Setup Conditions: TR-FRET, recombinant human Mcl-1(171-327), biotin-Bim(51-76); read-out: Mel-1 HTRF IC50
Remember, pIC50 is on a log scale: it is -log10 of the molar concentration.

For the compound COCCN(C)[C@H]1CO[C@@H]([C@H]2CCC[C@H](C)[C@@H](C)S(=O)(=O)NC(=O)c3ccc4c(c3)N(C[C@@H]3CC[C@H]32)C[C@@]2(CCCc3cc(Cl)ccc32)CO4)OC1 [Example 71] , what pIC50 is on record?
9.66

For the compound C[C@@H]1[C@@H](C)CCC[C@@H]([C@H]2OC[C@@H](CN(C)C)O2)[C@@H]2CC[C@H]2CN2C[C@@]3(CCCc4cc(Cl)ccc43)COc3ccc(cc32)C(=O)NS1(=O)=O (single isomer, unassigned) [Example 30] , what pIC50 is on record?
8.29
